Recorded values, source patent US9663463B2.

# PROTOCOL NOTES: in vitro
# Type: in vitro ADME, mice
# CONDITION DESCRIPTION: Crl:CD-1 (ICR), mouse, pH 7.4; murine serum, equilibrium dialysis, 37° C., 5 to 6 hours; read-out: Protein binding rate (converted)
Counter-ions that a name gives are not always drawn.
Please note: fraction unbound exactly at 0.009 is NO. Only values below 0.009 get YES.

- COMPOUND: "COC1(CN2C[C@@H]3[C@H](C2)[C@@]3(C)c2cccc(NS(=O)(=O)C3CC3)c2)Cc2ccccc2C1 [Example 18-(b), hydrochloride]"
  ANSWER LABEL: "YES"
- COMPOUND: "CC[C@]1(c2cccc(NS(=O)(=O)C3CC3)c2)[C@@H]2CN(CCCN3CCC(F)(F)C3)C[C@@H]21 [Example 8-(b), hydrochloride]"
  ANSWER LABEL: "NO"
- COMPOUND: "CC[C@]1(c2cc(F)cc(NS(=O)(=O)C3CC3)c2)[C@@H]2CN(CC3(O)Cc4ccccc4C3)C[C@@H]21 [Example 10-(b), hydrochloride]"
  ANSWER LABEL: "NO"
- COMPOUND: "CC[C@]1(c2cccc(NS(=O)(=O)C3CC3)c2)[C@@H]2CN(CCCC3(OC)CCC(F)(F)CC3)C[C@@H]21 [Example 6-(b), hydrochloride]"
  ANSWER LABEL: "NO"
